Exercise: state measured growth for each of the molecules provided.
Tested on: PC-3 prostate
Test: NCI-60 one-dose screen, 48 h (100 = growth as untreated, 0 = no growth, -100 = all killed)
Conditions: 10 µM unless noted
Compounds without any hit were thinned out: in the full panel of roughly 83,000, 20% have a hit.
The answer is to be given in %; state only the numeric part.

Query string: Suppose we examine the molecule COc1cc2nc(Nc3ccc(F)cc3)nc(N)c2cc1OC ; what growth value has been reported?
Result string: 84.1

Query string: Now consider O=C(O)c1ccc(CO)o1 .
Result string: 105

Query string: What would you report for N#Cc1c(N)n2c(nc1=Nc1ccc(Cl)cc1)sc1cc(Cl)ccc12 ?
Result string: 62.5

Query string: Moving on to the next molecule: C[C@@H]1CC[C@@H]2[C@@H]1[C@H](OC(=O)/C=C/c1ccccc1)[C@]1(C3CCCCC3)C[C@@H](NC(=O)CO)[C@@]2(C)O1
Result string: 94

Query string: Could you do the same for O=[N+]([O-])c1ccc2[nH]cc(-c3c4ccsc4cc4[nH]c5ccc([N+](=O)[O-])cc5c34)c2c1 , please?
Result string: 9.2

* * *

For each of the compounds below, state its growth.
Tested on: OVCAR-5 ovarian
Assay: NCI-60 one-dose screen, 48 h (100 = growth as untreated, 0 = no growth, -100 = all killed)
Conditions: 10 µM unless noted
Compounds without any hit were thinned out: in the full panel of roughly 83,000, 20% have a hit.
Dear colleague, please return just the value in %, with no unit written.

Query string: For the compound shown here, Cc1nc(Nc2ccc(NC(=S)Nc3ccccc3)cc2)nc2nc(Nc3ccc(S(=O)(=O)O)cc3)[nH]c(=O)c12 , give the reported growth.
Result string: 103

Query string: How about N[C@@H]1CCC[C@H]1NCCCCN1C(=O)c2cccc3cccc(c23)C1=O ?
Result string: 80.9

Query string: // same read-out, input: O[C@H]1CO[C@H]2[C@@H]1OC[C@@H]2Oc1ccc(Nc2nc(Nc3ccc(F)c(Cl)c3)ncc2F)cc1Cl
Result string: 105

Query string: Repeat with CCCc1nc2ccccn2c1Nc1ccc(C(=O)NO)cc1
Result string: 93.7

Query string: Try the compound CCCCn1c(=O)[nH]c(N)c(C(c2ccc(F)cc2)c2c(N)[nH]c(=O)n(CCCC)c2=O)c1=O
Result string: 94.4

Query string: What about this compound? N#Cc1cnn2c(-c3ccc(Cl)cc3)nc(NC3CC3)nc12
Result string: 93.9

Query string: Moving on to the next compound: CCCCCOC(=O)c1cccc(NC(=O)CN(CC)CC)c1
Result string: 107

Query string: Let us now turn to COc1cc(-c2ccc(N=Nc3c(O)c(C(=O)Nc4ccccc4OC)cc4ccccc34)c(OC)c2)ccc1N=Nc1c(O)c(C(=O)Nc2ccccc2OC)cc2ccccc12
Result string: 99.6

Query string: Next entry: CN(C)c1cnccn1
Result string: 114

Query string: What do we get for COc1ccc(-c2cncnc2N)cc1OC ?
Result string: 110

* * *

System: MDA-MB-435 melanoma
Test: NCI-60 one-dose screen, 48 h
Settings: 10 µM unless noted
This is part of a sample that, as a whole, favours compounds with a hit. Of some 83,000 tested, about 20% had one in any assay. Activity calls are given as the source filed them. How the source made its calls: active means growth percent below 10; inactive means the rest.
// allowed return values: active, inactive

Query string: Per the assay record, what outcome was assigned to Cc1ccc(/C(=N\N=C(N)N)c2ccccc2)cc1 ?
Result string: active

Query string: // repeat for CSc1ccc(Cl)c(C(=O)Nc2sccc2C(N)=O)c1 and report
Result string: inactive

Query string: Okay, and O=C(CC12CC3CC(CC(C3)C1)C2)NCCOCCOCCNC(=O)c1cc2c(o1)C(=O)c1ccccc1C2=O ?
Result string: active

Query string: Request: C=CCOc1cccc(/C=C2\SC(=Nc3ccc(O)cc3)NC2=O)c1
Result string: active

Query string: // query: COc1ccc(O)c(-c2cc(-c3ccccc3)c(C#N)c(=O)[nH]2)c1
Result string: inactive

Query string: Further, for O=C(/C=C/C12c3ccccc3C(c3ccccc31)C1C(=O)N(c3ccccc3)C(=O)C12)c1ccccc1 (stereo not given) ?
Result string: active

Query string: How about CC12CC(C#N)CCC1O2 (stereo not given) ?
Result string: inactive

Query string: Would you kindly repeat that for COc1cc(/C=C/c2nc(Nc3ccc(S(=O)(=O)Nc4cc(C)on4)cc3)c3ccccc3n2)ccc1O ?
Result string: active

Query string: Further, for COc1ccc(Cn2cnc3cc(C(=O)Nc4cccc5ccccc45)ccc32)c(OC)c1 ?
Result string: active

Query string: Same question for Cc1csc(NC(=O)c2sc3nc(-c4cccs4)ccc3c2N)n1 please.
Result string: inactive
